Molecular target: T1, monkey GPC3 on HEK293T-monkey GPC3 cells (monkey)
T1 construct: whole, on cells
Experiment: FACS on HEK293T-monkey GPC3 cells
In this scheme, each record receives a class according to its EC50; the ranges are lower bin: < 1 nM; middle bin: ≥ 1 nM and < 2 nM; upper bin: ≥ 2 nM

Q. Which bin, given its EC50, does hAb001H2L1b (antibody, human IgG1, V domains shown, Humanized F2.169.2) VH: EVQLVESGGGLVQPGGSLRLSCAASGFSFNTNAMNWVRQAPGKGLEWVGRIRSKSNNYATYYADSVKDRFTISRDDSKSSLYLQMNSLKTEDTAVYYCVRDGYYVLFAYWGQGTLVTVSS VL: DIVMTQTPLSLPVTPGEPASISCRFSQSIVNSNANTYLEWFLQKPGQSPQLLIYKVSNRFSGVPDRFSGSGSGTDFTLKISRVEAEDVGVYYCFQGSHVPFTFGQGTKLEIK occupy?
A. middle bin

These entries and their values trace back to patent US20260116991A1.
